Test system: NCI-H510 multicellular tumor spheroid growth, % test/control
Assay: Anticancer human tumor NCI-H510 cell line growth inhibition [Asc];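 further: spheroids exposed to agents for 7 days; 100% = DMSO vehicle control wells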
Conditions: second compound 0.949 µM; first compound 0.01 µM; hits give low values
Source text: Multicellular complex tumor spheroid response to apoptosis pathway targeting inhibitors Alrizomadlin, Pelcitoclax, and Dasminapant in combination with a variety of drugs and investigational agents in selected tumor cell lines […] Compounds. […] If the clinical Cmax for an agent had not been determined, the highest concentration tested was 10 microM. […]
result type: viability, T/C (%)
Kindly provide the numeric value in % only, without the unit symbol.

Worked set:
INSERT INTO measurements (molecule, result_type, test_value) VALUES
  ('COc1c(OCCCN2CCOCC2)ccc2c3n(c(=NC(=O)c4cnc(N)nc4)nc12)CCN3 + CCN1C(C(=O)NC23CCC(C(=O)O)(CC2)CC3)C(c2cccc(Cl)c2F)C2(C(=O)Nc3cc(Cl)ccc32)C12CCCCC2', 'viability, T/C', 99.5),
  ('CNC(C)C(=O)NC1CN(S(=O)(=O)c2cccc(S(=O)(=O)N3CCC4CCC(C(=O)NC(c5ccccc5)c5ccccc5)N4C(=O)C(NC(=O)C(C)NC)C3)c2)CCC2CCC(C(=O)NC(c3ccccc3)c3ccccc3)N2C1=O (stereo unspecified) + CCN1C(C(=O)NC23CCC(C(=O)O)(CC2)CC3)C(c2cccc(Cl)c2F)C2(C(=O)Nc3cc(Cl)ccc32)C12CCCCC2', 'viability, T/C', 99.8),
  ('O=C(c1ccc(F)c(F)c1Nc1ccc(I)cc1F)N1CC(O)([C@@H]2CCCCN2)C1 + CCN1C(C(=O)NC23CCC(C(=O)O)(CC2)CC3)C(c2cccc(Cl)c2F)C2(C(=O)Nc3cc(Cl)ccc32)C12CCCCC2', 'viability, T/C', 132);

Record lookup: for NCI-H510 multicellular tumor spheroid growth, % test/control, what viability, T/C belongs to CCN1CCN(Cc2ccc(Nc3ncc(F)c(-c4cc(F)c5nc(C)n(C(C)C)c5c4)n3)nc2)CC1 + CCN1C(C(=O)NC23CCC(C(=O)O)(CC2)CC3)C(c2cccc(Cl)c2F)C2(C(=O)Nc3cc(Cl)ccc32)C12CCCCC2 ?
107

Record lookup: for NCI-H510 multicellular tumor spheroid growth, % test/control, what viability, T/C belongs to Cn1ncnc1[C@H]1c2n[nH]c(=O)c3cc(F)cc(c23)N[C@@H]1c1ccc(F)cc1 + CCN1C(C(=O)NC23CCC(C(=O)O)(CC2)CC3)C(c2cccc(Cl)c2F)C2(C(=O)Nc3cc(Cl)ccc32)C12CCCCC2 ?
50.9

Record lookup: for NCI-H510 multicellular tumor spheroid growth, % test/control, what viability, T/C belongs to NC1CCC(NC2CC2c2ccccc2)CC1 (stereo unspecified) + CCN1C(C(=O)NC23CCC(C(=O)O)(CC2)CC3)C(c2cccc(Cl)c2F)C2(C(=O)Nc3cc(Cl)ccc32)C12CCCCC2 ?
80.8

###

test system: NCI-H510 multicellular tumor spheroid growth, % test/control; assay: Anticancer human tumor NCI-H510 cell line growth inhibition [Asc]; conditions: second compound 0.316 µM; first compound 0.3 µM; hits give low values;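 further: spheroids exposed to agents for 7 days; 100% = DMSO vehicle control wells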
result type: viability, T/C (%)
Kindly provide the numeric value in % only, without the unit symbol.

INSERT INTO results (compound, test_value) VALUES
  ('NC(=O)C(=Cn1cnc(-c2cc(C(F)(F)F)cc(C(F)(F)F)c2)n1)c1cncnc1 + Cc1c(S(C)(=O)=O)c(-c2cc(F)cc(N3CCN(c4ccc(NS(=O)(=O)c5ccc(NC(CCN6CCC(C(=O)OCCCP(=O)(O)O)CC6)CSc6ccccc6)c(S(=O)(=O)C(F)(F)F)c5)cc4)CC3)c2)c(-c2ccc(Cl)cc2)n1C(C)C', 4.66);

Would you kindly share the measured viability, T/C for NC(=O)C(=Cn1cnc(-c2cc(C(F)(F)F)cc(C(F)(F)F)c2)n1)c1cncnc1 + CNC(C)C(=O)NC1CN(S(=O)(=O)c2cccc(S(=O)(=O)N3CCC4CCC(C(=O)NC(c5ccccc5)c5ccccc5)N4C(=O)C(NC(=O)C(C)NC)C3)c2)CCC2CCC(C(=O)NC(c3ccccc3)c3ccccc3)N2C1=O ?
95.9

Would you kindly share the measured viability, T/C for CCN1C(C(=O)NC23CCC(C(=O)O)(CC2)CC3)C(c2cccc(Cl)c2F)C2(C(=O)Nc3cc(Cl)ccc32)C12CCCCC2 (stereo not drawn) + Cc1c(S(C)(=O)=O)c(-c2cc(F)cc(N3CCN(c4ccc(NS(=O)(=O)c5ccc(NC(CCN6CCC(C(=O)OCCCP(=O)(O)O)CC6)CSc6ccccc6)c(S(=O)(=O)C(F)(F)F)c5)cc4)CC3)c2)c(-c2ccc(Cl)cc2)n1C(C)C ?
94.9
